Hey, just so you know, these numbers are from patent US8859541B2.

# system.tested: XIAP BIR3 (Homo sapiens, UniProt P98170)
# Construct: covering amino acids 241 to 356; XIAP BIR3
# Sequence (P98170 241-356): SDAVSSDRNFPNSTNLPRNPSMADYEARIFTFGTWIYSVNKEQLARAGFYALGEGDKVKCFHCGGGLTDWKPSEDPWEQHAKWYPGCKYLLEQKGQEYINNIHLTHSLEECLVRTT
# test.summary: XIAP BIR3 binding assay (DELFIA), displacement of SMAC peptide
# experimental.parameters: GST-fusion BIR3 domain (aa 241 to 356) 10 nM, SMAC peptide 10 nM; activity of the (S)-isomers
value.kind: IC50 (nM)

CNC(C)C(=O)Nc1ccc(-c2c(C)nc3ccccn23)c(C#Cc2cccc3ncccc23)n1 (stereo not shown)    92

[1] CNC(C)C(=O)Nc1ccc(-c2cncc(OC)c2)c(C#Cc2ccccc2)n1 (stereo not shown)
[2] CNC(C)C(=O)Nc1ccc(-c2ccc(C(N)=O)nc2)c(C#Cc2ccccc2)n1 (stereo not shown)
[3] CC(N)C(=O)Nc1ccc(-c2cccc(C(=O)O)c2)c(C#Cc2ccccc2)n1 (stereo not shown)
Arrange these 3 compounds in increasing order of IC50. Provide the labels, sequenced as the question asks. 1, 2, 3
